- assay.notes: AUC (0 to infinity) in male Beagle dog at 1.5 mg/kg, po administered via gavage and measured after 24 hrs by LC-MS/MS analysis
- Format: ADME, organism-based, Canis lupus familiaris
- applied.conditions: in vivo
measured.parameter: AUC(0-inf) (ng·h/mL)
Report only the number, with the unit ng·h/mL understood.

Need AUC(0-inf), item O=C(Nc1cc(F)c(F)c(F)c1)c1ccc(F)c(S(=O)(=O)N2CCC(O)CC2)c1 3500

---

- assay.notes: Metabolic stability in human liver assessed as intrinsic clearance
- Format: ADME, tissue-based
- applied.conditions: read-out: CLH
measured.parameter: CLint scaled (mL/min/kg)
Report only the number, with the unit mL/min/kg understood.

Need CLint scaled, item O=C(Nc1cc(F)c(F)c(F)c1)c1cc(S(=O)(=O)NC2CCCC2)cc2c1OCCO2 89.8

Need CLint scaled, item O=C(O)Cc1ccccc1Nc1c(Cl)cccc1Cl [DICLOFENAC] 232

---

- assay.notes: Metabolic stability in human plasma assessed as parent compound remaining measured after 60 mins
- Format: ADME, cell-free
- applied.conditions: read-out: Stability
measured.parameter: remaining at 1 h (%)
Report only the number, with the unit % understood.

Need remaining at 1 h, item O=C(Nc1cc(F)c(F)c(F)c1)c1cc(S(=O)(=O)NC2CCCC2)cc2c1OCCO2 115

Need remaining at 1 h, item CC(C)[N+](C)(CCOC(=O)C1c2ccccc2Oc2ccccc21)C(C)C.[Br-] [PROPANTHELINE BROMIDE] 0.4

---

- study.system: Core antigen (Hepatitis B virus)
- Sequence (Q03732 whole entry): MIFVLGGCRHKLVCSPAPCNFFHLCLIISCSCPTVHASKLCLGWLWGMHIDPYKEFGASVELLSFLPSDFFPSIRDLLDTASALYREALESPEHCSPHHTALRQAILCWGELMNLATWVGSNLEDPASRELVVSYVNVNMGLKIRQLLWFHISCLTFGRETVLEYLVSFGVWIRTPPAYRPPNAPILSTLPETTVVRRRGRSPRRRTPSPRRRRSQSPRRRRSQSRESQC
- assay.notes: Inhibition of Hepatitis B virus Capsid protein assembly activity by fluorescence based analysis
I'd appreciate it if you could supply IC50 values for the items below.
Report only the number, with the unit nM understood.

Need IC50, item O=C(Nc1ccc(F)c(Cl)c1)c1cc(S(=O)(=O)NC2CCCC2)cc2c1OCCO2 4220

Need IC50, item O=C(Nc1cc(F)c(F)c(F)c1)c1cc(S(=O)(=O)NC2CCCC2)cc2c1OCCO2 1450

---

- assay.notes: Metabolic stability in human plasma assessed as half-life
- Format: ADME, cell-free
measured.parameter: half-life (min)
Report only the number, with the unit min understood.

Need half-life, item CC(C)[N+](C)(CCOC(=O)C1c2ccccc2Oc2ccccc21)C(C)C.[Br-] [PROPANTHELINE BROMIDE] 7.4

---

I'd appreciate it if you could supply selectivity ratio values for the items below.
- assay.notes: Selectivity index, ratio of CC50 for human HePAD38 cells to EC50 for hepatitis B virus infected in HePAD38 cells
- Format: toxicity, cell-based
- applied.conditions: read-out: Ratio CC50/EC50
I'd appreciate a reply containing only the number, no unit.

Need selectivity ratio, item O=C(Nc1ccc(F)c(Cl)c1)c1cc2c(c(S(=O)(=O)Nc3ccc(F)c(Cl)c3)c1)OCCO2 1.46

Need selectivity ratio, item O=C(Nc1cc(F)c(F)c(F)c1)c1ccc(F)c(S(=O)(=O)N2CCC(O)CC2)c1 88.4

---

- assay.notes: Metabolic stability in human liver microsomes assessed as intrinsic clearance
- Format: ADME, Microsome
- applied.conditions: read-out: CLH
measured.parameter: microsomal CLint
Put down the number, then write its unit next to it.

Need microsomal CLint, item O=C(Nc1cc(F)c(F)c(F)c1)c1cc(S(=O)(=O)NC2CCCC2)cc2c1OCCO2 99.8 µL/min/mg

---

- assay.notes: Metabolic stability in human liver microsomes assessed as parent compound remaining measured after 60 mins in presence of NADPH co-factor
- Assay type: ADME, Microsome
- applied.conditions: read-out: Stability
measured.parameter: remaining at 1 h (%)
Report only the number, with the unit % understood.

Need remaining at 1 h, item O=C(Nc1cc(F)c(F)c(F)c1)c1cc(S(=O)(=O)NC2CCCC2)cc2c1OCCO2 5

---

I'd appreciate it if you could supply selectivity ratio values for the items below.
- assay.notes: Selectivity index, ratio of CC50 for human HePAD38 cells to EC50 for hepatitis B virus infected in HePAD38 cells
- Assay type: toxicity, cell-based
- applied.conditions: read-out: Ratio CC50/EC50

Need selectivity ratio, item O=C(Nc1cc(F)cc(F)c1)c1cc(S(=O)(=O)NC2CCCC2)cc2c1OCCO2 > 232

Need selectivity ratio, item O=C(NC1CCCC1)c1cc2c(c(S(=O)(=O)Nc3cc(F)c(F)c(F)c3)c1)OCCO2 2.79

Need selectivity ratio, item O=C(Nc1ccc(F)c(F)c1)c1cc(S(=O)(=O)NC2CCCC2)cc2c1OCCO2 89

Need selectivity ratio, item O=C(Nc1cc(F)c(F)c(F)c1)c1cc(S(=O)(=O)NC2CCCC2)cc2c1OCCO2 > 419

Need selectivity ratio, item Cc1cc(NC(=O)c2cc(S(=O)(=O)NC3CCCC3)cc3c2OCCO3)ccc1F 104

Need selectivity ratio, item O=C(NC1CCCC1)c1cc(S(=O)(=O)Nc2ccc(F)c(Cl)c2)cc2c1OCCO2 > 93

Need selectivity ratio, item O=C(Nc1ccc(F)c(Cl)c1)c1cc(S(=O)(=O)NC2CCCC2)cc2c1OCCO2 95.5

---

- assay.notes: Cytotoxicity against human HePAD38 cells by CCK8 assay
- Type: toxicity, cell-based
I'd appreciate it if you could supply CC50 values for the items below.

Need CC50, item O=C(Nc1cc(F)c(F)c(F)c1)c1cc(S(=O)(=O)NC2CCCC2)cc2c1OCCO2 > 100 µM

Need CC50, item O=C(Nc1ccc(F)c(Cl)c1)c1cc(S(=O)(=O)Nc2ccsc2)cc2c1OCCO2 > 100 µM

Need CC50, item O=C(Nc1ccc(F)c(Cl)c1)c1cc2c(c(S(=O)(=O)Nc3ccc(F)c(Cl)c3)c1)OCCO2 6.64 µM

Need CC50, item O=C(Nc1ccc(F)c(Cl)c1)c1cc(S(=O)(=O)NC2CCCC2)cc2c1OCCO2 48.2 µM

Need CC50, item O=C(NC1CCCC1)c1cc(S(=O)(=O)NC2CCCC2)cc2c1OCCO2 > 100 µM

Need CC50, item N#Cc1cc(NC(=O)c2cc(S(=O)(=O)NC3CCCC3)cc3c2OCCO3)ccc1F > 100 µM

Need CC50, item O=C(NC1CCCC1)c1cc(S(=O)(=O)Nc2ccc(F)c(Cl)c2)cc2c1OCCO2 > 100 µM

Need CC50, item O=C(Nc1ccc(F)c(F)c1)c1cc(S(=O)(=O)NC2CCCC2)cc2c1OCCO2 81.4 µM

Need CC50, item O=C(NC1CCCC1)c1cc2c(c(S(=O)(=O)Nc3cc(F)c(F)c(F)c3)c1)OCCO2 20.5 µM

Need CC50, item O=C(Nc1cc(F)c(F)c(F)c1)c1ccc(F)c(S(=O)(=O)N2CCC(O)CC2)c1 20.8 µM

Need CC50, item O=C(c1cc(S(=O)(=O)NC2CCCC2)cc2c1OCCO2)N1CCC(O)CC1 > 100 µM

Need CC50, item O=C(NC1CCCC1)c1cc2c(c(S(=O)(=O)Nc3ccc(F)c(Cl)c3)c1)OCCO2 > 100 µM

Need CC50, item O=C(Nc1cc(F)cc(F)c1)c1cc(S(=O)(=O)NC2CCCC2)cc2c1OCCO2 > 100 µM

Need CC50, item Cc1cc(NC(=O)c2cc(S(=O)(=O)NC3CCCC3)cc3c2OCCO3)ccc1F 51 µM

Need CC50, item O=C(Nc1ccc(F)c(Cl)c1)c1cc(S(=O)(=O)Nc2nccs2)cc2c1OCCO2 > 100 µM

Need CC50, item O=C(Nc1ccc(F)cc1)c1cc(S(=O)(=O)NC2CCCC2)cc2c1OCCO2 > 100 µM

Need CC50, item O=C(NC1CCCC1)c1cc(S(=O)(=O)Nc2cc(F)c(F)c(F)c2)cc2c1OCCO2 > 100 µM

---

- assay.notes: Selectivity index, ratio of CC50 for human HePAD38 cells to EC50 for hepatitis B virus infected in HePAD38 cells
- Format: toxicity, cell-based
- applied.conditions: read-out: Ratio CC50/EC50
measured.parameter: selectivity ratio

Need selectivity ratio, item O=C(Nc1ccc(F)c(Cl)c1)c1cc(S(=O)(=O)Nc2ccsc2)cc2c1OCCO2 > 116

Need selectivity ratio, item O=C(Nc1ccc(F)cc1)c1cc(S(=O)(=O)NC2CCCC2)cc2c1OCCO2 > 98.2

Need selectivity ratio, item N#Cc1cc(NC(=O)c2cc(S(=O)(=O)NC3CCCC3)cc3c2OCCO3)ccc1F > 65.3
